Values were extracted from the RNAGym collection of RNA variant scans (doi:10.1093/nar/gkz1192).

# reported self-cleavage; entries follow
B1: CPEB3 Ribozyme (parent)
chain: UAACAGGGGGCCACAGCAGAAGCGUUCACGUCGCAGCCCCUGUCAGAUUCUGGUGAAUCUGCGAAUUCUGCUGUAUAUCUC

# Variants of: B1
# Measurement Protocol: self-cleavage, relative activity (ratio to wild type); higher = more cleavage; in vitro, sequencing

As a guide, the following entries are already answered.
1) U31G U74C; 0.96
2) C39U A45G; 0.69
3) G61U U69A; 0.3
4) U51G A75G; 0.89

Requested read-out: self-cleavage. Entry: C39A A77U
0.32

Requested read-out: self-cleavage. Entry: A5G G8A
0.23

Requested read-out: self-cleavage. Entry: A5C C34U
0.47

Requested read-out: self-cleavage. Entry: A28U G36C
0.37

Requested read-out: self-cleavage. Entry: U43C U69C
0.31

Requested read-out: self-cleavage. Entry: C40A U48A
0.15

Requested read-out: self-cleavage. Entry: C32G C44U
0.12

Requested read-out: self-cleavage. Entry: A15U C27U
0.19

Requested read-out: self-cleavage. Entry: G61A U74C
1.12

Requested read-out: self-cleavage. Entry: C40U U60G
0

Requested read-out: self-cleavage. Entry: U41C U54A
1.11

Requested read-out: self-cleavage. Entry: C29U U76A
0.62

Requested read-out: self-cleavage. Entry: C32U
0.28

Requested read-out: self-cleavage. Entry: A18G A47G
0.66

Requested read-out: self-cleavage. Entry: G8A U69A
0.28

Requested read-out: self-cleavage. Entry: U49C A65U
0.26

Requested read-out: self-cleavage. Entry: G24U A35U
0.19

Requested read-out: self-cleavage. Entry: A20U G73A
0.67
